pIC50: −log10 of the molar value.
pIC50 values recorded for CYP2D6 (Homo sapiens, UniProt P10635)

Please review the following examples before continuing.
{"sample_smiles": "CO[C@H]1[C@@H](CF)OC(N)=N[C@]1(C)c1cc(NC(=O)c2ccc(F)cn2)ccc1Cl", "pIC50": "≤ 4.70"}
{"sample_smiles": "C[C@H]1SC(N)=N[C@](C)(c2cccc(NC(=O)c3cnc(OCF)cn3)c2)[C@H]1F", "pIC50": "≤ 4.70"}
{"sample_smiles": "C[C@H]1SC(N)=N[C@](C)(c2cc(NC(=O)c3coc(CF)n3)ccc2F)[C@H]1F", "pIC50": "≤ 4.70"}

Let me know recorded pIC50 for "C[C@]1(c2cc(NC(=O)c3cnc(OCF)cn3)ccc2F)N=C(N)O[C@H](CF)[C@@H]1OCC(F)(F)F" , thanks.
≤ 5.00

---

protocol_description: Metabolic stability test
Type: in vitro ADME
condition_details: human liver microsomes, 37° C., 30 minutes, NADPH
// values below are reported remaining %
Number only, in %; omit the unit.

{"sample_smiles": "CO[C@H]1[C@@H](C)SC(N)=N[C@]1(C)c1cc(NC(=O)c2ccc(F)cn2)ccc1F", "recorded_endpoint": "remaining %", "unit_info": "%", "numeric_result": 86.7}
{"sample_smiles": "C[C@H]1SC(N)=N[C@](C)(c2cc(NC(=O)c3ncc(C#N)cc3F)ccc2F)[C@H]1F", "recorded_endpoint": "remaining %", "unit_info": "%", "numeric_result": 81.1}
{"sample_smiles": "CC(F)(F)[C@H]1OC(N)=N[C@](C)(c2cc(NC(=O)c3cnc(OCC(F)(F)F)cn3)ccc2F)[C@H]1F", "recorded_endpoint": "remaining %", "unit_info": "%", "numeric_result": 85.2}
{"sample_smiles": "C[C@H]1SC(N)=N[C@](C)(c2nc(NC(=O)c3ccc(F)cn3)ccc2F)[C@H]1F", "recorded_endpoint": "remaining %", "unit_info": "%", "numeric_result": 88}
{"sample_smiles": "[2H]C([2H])([2H])Oc1cnc(C(=O)Nc2cccc([C@@]3(C)N=C(N)S[C@H](C)[C@@H]3F)c2)cn1", "recorded_endpoint": "remaining %", "unit_info": "%", "numeric_result": 80.5}

Let me know recorded remaining % for "C[C@H]1SC(N)=N[C@](C)(c2cc(NC(=O)c3ccc(OCF)cn3)ccc2F)[C@H]1F" , thanks.
76.5

Let me know recorded remaining % for "C[C@H]1SC(N)=N[C@](C)(c2cc(NC(=O)c3ccc(F)cn3)ccc2F)C12CC(F)(F)C2" , thanks.
75.8

Let me know recorded remaining % for "[2H]C([2H])([2H])Oc1cnc(C(=O)Nc2ccc(F)c([C@@]3(C)N=C(N)S[C@H](C)[C@@H]3F)c2)cn1" , thanks.
64.9

Let me know recorded remaining % for "CC(F)(F)[C@H]1OC(N)=N[C@](C)(c2cc(NC(=O)c3ccc(C#N)cn3)ccc2F)[C@H]1F" , thanks.
106

Let me know recorded remaining % for "C[C@H]1SC(N)=N[C@](C)(c2cc(NC(=O)c3cnc(OCC(F)F)cn3)ccc2F)[C@H]1F" , thanks.
92.9

---

protocol_description: Brain distribution studies
Type: in vivo
condition_details: rat, brain / plasma, iv, 0.5 mg/mL/kg, 30 minutes later, area ratio brain/plasma
recorded_endpoint: Kp at 0.5 h
// no unit string in output, number only

Please review the following examples before continuing.
{"sample_smiles": "C[C@H]1SC(N)=N[C@](C)(c2cc(NC(=O)c3cnc(OC(F)F)cn3)ccc2F)[C@H]1F", "Kp at 0.5 h": 1.1}
{"sample_smiles": "C[C@H]1SC(N)=N[C@](C)(c2nc(NC(=O)c3ccc(C#N)cn3)ccc2F)[C@H]1F", "Kp at 0.5 h": 2}
{"sample_smiles": "C[C@H]1SC(N)=N[C@](C)(c2cc(NC(=O)c3cnc(OCC(F)(F)F)cn3)ccc2F)[C@H]1F", "Kp at 0.5 h": 1.9}

Let me know recorded Kp at 0.5 h for "C[C@H]1SC(N)=N[C@](C)(c2nc(NC(=O)c3cnc(OCF)cn3)ccc2F)[C@H]1F" , thanks.
2.3

The reported measurements were obtained from patent US20170073337A1.
